biological target: HDM2 (Homo sapiens); construct: Thioredoxin (N); made in house; host or cells: E. coli strain BL21(DE3)Rosetta; test: HDM2 FRET assay (inhibition of binding of FITC labeled p53-pocket peptide to HDM2); settings: Table 10; read-out: FRET IC50
Sequence (Q00987 17-125): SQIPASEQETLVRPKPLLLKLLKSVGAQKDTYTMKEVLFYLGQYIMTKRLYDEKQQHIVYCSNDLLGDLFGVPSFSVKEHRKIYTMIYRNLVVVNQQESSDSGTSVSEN
QUANTITY NAME: pIC50
Answers are plain numbers, as −log10 of the molar value.

Here are 2 compounds together with their reported answers.
INSERT INTO results (compound, measurement_target, obs_value) VALUES
  ('CC(C)CC(=O)N(C)c1nc2nc(C(=O)O)nc(N[C@H](C)C3CCC3)c2n1Cc1ccc(C(F)(F)F)cc1 [Example 10.3]', 'HDM2 (Homo sapiens)', 7.16),
  ('C[C@@H](Nc1nc(C(=O)O)nc2nc(C(=O)N[C@@H](CO)c3ccccc3)n(Cc3ccc(C(F)(F)F)cc3)c12)C1CCC1 [Example 10.15]', 'HDM2 (Homo sapiens)', 6.70);

API: the following record is the query input.
// assay HDM2 (Homo sapiens), entry C[C@@H](Nc1nc(C(=O)O)nc2nc(C(=O)Nc3ccccc3)n(Cc3ccc(C(F)(F)F)cc3)c12)C1CCC1 [Example 10.20] , pIC50 value = 6.72

The origin of these recorded values is patent EP2951180B1.
